Test: Inhibition of bovine Phosphatidylinositol 3-kinase
Parameters: species or system Bos taurus
pIC50: −log10 of the molar value.
Respond with MET for pIC50 values of 8 and above, NOT MET for values below.

> print(dat)
                                   compound  group.label
1  COC[C@H]1OC(=O)c2coc3c2[C@@]1(C)C1=C(C3=O)[C@@H]2CC[C@H](O)[C@@]2(C)C[C@H]1OC(C)=O          MET
2  COC[C@H]1OC(=O)c2coc3c2[C@@]1(C)C1=C(C3=O)[C@@H]2CCC(=O)[C@@]2(C)C[C@H]1OC(C)=O [WORTMANNIN]          MET
3  NCCCC(O)(P(=O)(O)O)P(=O)(O)O [ALENDRONIC ACID]      NOT MET
4  COC(=O)c1coc2c(O)c3c(c(C)c12)C=C[C@]1(C)C(=O)CC[C@@H]31      NOT MET
5  Cc1c2c(c(O)c3occ(C(=O)O)c13)C1CCC(=O)[C@@]1(C)C=C2 (some centres undefined)      NOT MET
6  CC(O)(P(=O)(O)O)P(=O)(O)O [ETIDRONIC ACID]      NOT MET
7  COC[C@H]1OC(=O)c2c(C)oc3c2[C@@]1(C)C1=C(C3=O)[C@@H]2CCC(=O)[C@@]2(C)C[C@H]1OC(C)=O      NOT MET
8  COC[C@H]1OC(=O)c2coc3c2[C@@]1(C)C1=CC[C@]2(C)C(=O)CC[C@H]2C1C3=O (some centres undefined)      NOT MET
